The reported numbers originate from patent US20240158392A1.

target-entity: SIK2 (Homo sapiens)
Sequence (Q9H0K1 whole entry, species assumed): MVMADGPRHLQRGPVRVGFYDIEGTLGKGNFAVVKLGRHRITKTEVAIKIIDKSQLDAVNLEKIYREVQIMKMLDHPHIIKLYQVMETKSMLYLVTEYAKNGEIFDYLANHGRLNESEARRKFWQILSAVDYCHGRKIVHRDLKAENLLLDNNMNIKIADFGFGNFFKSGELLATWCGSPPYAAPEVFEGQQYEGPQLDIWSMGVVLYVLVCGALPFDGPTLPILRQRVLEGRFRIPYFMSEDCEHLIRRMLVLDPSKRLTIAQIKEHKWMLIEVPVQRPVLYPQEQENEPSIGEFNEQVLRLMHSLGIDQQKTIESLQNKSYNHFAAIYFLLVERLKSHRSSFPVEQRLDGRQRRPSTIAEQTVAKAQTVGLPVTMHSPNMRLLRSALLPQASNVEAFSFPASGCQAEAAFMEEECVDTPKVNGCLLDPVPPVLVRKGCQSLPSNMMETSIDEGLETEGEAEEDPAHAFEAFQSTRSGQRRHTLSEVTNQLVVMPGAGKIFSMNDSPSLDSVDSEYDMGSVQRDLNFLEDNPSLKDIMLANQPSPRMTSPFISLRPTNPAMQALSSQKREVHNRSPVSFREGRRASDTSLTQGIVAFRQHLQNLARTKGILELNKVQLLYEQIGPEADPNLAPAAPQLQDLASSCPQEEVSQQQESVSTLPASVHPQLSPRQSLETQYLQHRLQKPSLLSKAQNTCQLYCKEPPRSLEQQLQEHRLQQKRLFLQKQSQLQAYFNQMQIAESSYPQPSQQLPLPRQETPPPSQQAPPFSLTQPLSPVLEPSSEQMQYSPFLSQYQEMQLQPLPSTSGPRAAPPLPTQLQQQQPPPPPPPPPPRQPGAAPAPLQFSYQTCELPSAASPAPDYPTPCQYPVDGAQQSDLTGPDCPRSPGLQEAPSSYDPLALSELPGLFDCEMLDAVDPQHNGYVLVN
test-summary: SIK2 Enzymatic Assay High Version 2 (High ATP)
Type: biochemical
pIC50: −log10 of the molar value.
measured-endpoint: pIC50

>>> print(df.to_string())
                                   molecule  result
0  Cc1cc(-c2ccn3nc(Nc4cc(C)nc(C)n4)cc3c2)c(O[C@H]2C[C@H]3COC[C@@H](C2)N3)cn1 [Example 382]  > 9.07
1  Cc1cc(-c2ccn3nc(Nc4ccc(C(F)(F)F)cn4)cc3c2)c(O[C@H]2C[C@H]3COC[C@@H](C2)N3)cn1 [Example 374]  > 9.07
2  Cc1cc(-c2ccn3nc(Nc4ccnc(C)n4)cc3c2)c(O[C@H]2C[C@H]3COC[C@@H](C2)N3)cn1 [Example 372]  > 9.07
